# Organism: Mus musculus
# experiment: Ratio of concentration that reduced cell viability to inhibitory concentration for LPS-induced B cell proliferation
# Assay type: functional
Below: a set of entries, each annotated with reported Selectivity index.
Would you mind answering with just the numeric figure?

These solved cases illustrate the format of a correct answer.
molecule	Selectivity index
COC(=O)CCc1ccc(O[C@H]2O[C@@H]3OC4(C)CC[C@H]5[C@H](C)CC[C@@H]([C@H]2C)[C@@]35OO4)cc1 (single isomer, unassigned)	2343
COc1ccccc1OC(=O)C(C)Oc1ccc(O[C@H]2O[C@@H]3OC4(C)CC[C@H]5[C@H](C)CC[C@@H]([C@H]2C)[C@@]35OO4)cc1 (single isomer, unassigned)	145

Exercise: I would be grateful if you could share the reported Selectivity index for C[C@H]1[C@@H](Oc2ccc(OCC(=O)O)cc2)OC2OC3(C)CCC4[C@H](C)CC[C@@H]1[C@@]24OO3 (single isomer, unassigned) .
Solution: 59

Origin of values: ChEMBL document CHEMBL1140316
